Target Desc: Xanthine dehydrogenase/oxidase (Homo sapiens, UniProt P47989)
Sequence (P47989 whole entry): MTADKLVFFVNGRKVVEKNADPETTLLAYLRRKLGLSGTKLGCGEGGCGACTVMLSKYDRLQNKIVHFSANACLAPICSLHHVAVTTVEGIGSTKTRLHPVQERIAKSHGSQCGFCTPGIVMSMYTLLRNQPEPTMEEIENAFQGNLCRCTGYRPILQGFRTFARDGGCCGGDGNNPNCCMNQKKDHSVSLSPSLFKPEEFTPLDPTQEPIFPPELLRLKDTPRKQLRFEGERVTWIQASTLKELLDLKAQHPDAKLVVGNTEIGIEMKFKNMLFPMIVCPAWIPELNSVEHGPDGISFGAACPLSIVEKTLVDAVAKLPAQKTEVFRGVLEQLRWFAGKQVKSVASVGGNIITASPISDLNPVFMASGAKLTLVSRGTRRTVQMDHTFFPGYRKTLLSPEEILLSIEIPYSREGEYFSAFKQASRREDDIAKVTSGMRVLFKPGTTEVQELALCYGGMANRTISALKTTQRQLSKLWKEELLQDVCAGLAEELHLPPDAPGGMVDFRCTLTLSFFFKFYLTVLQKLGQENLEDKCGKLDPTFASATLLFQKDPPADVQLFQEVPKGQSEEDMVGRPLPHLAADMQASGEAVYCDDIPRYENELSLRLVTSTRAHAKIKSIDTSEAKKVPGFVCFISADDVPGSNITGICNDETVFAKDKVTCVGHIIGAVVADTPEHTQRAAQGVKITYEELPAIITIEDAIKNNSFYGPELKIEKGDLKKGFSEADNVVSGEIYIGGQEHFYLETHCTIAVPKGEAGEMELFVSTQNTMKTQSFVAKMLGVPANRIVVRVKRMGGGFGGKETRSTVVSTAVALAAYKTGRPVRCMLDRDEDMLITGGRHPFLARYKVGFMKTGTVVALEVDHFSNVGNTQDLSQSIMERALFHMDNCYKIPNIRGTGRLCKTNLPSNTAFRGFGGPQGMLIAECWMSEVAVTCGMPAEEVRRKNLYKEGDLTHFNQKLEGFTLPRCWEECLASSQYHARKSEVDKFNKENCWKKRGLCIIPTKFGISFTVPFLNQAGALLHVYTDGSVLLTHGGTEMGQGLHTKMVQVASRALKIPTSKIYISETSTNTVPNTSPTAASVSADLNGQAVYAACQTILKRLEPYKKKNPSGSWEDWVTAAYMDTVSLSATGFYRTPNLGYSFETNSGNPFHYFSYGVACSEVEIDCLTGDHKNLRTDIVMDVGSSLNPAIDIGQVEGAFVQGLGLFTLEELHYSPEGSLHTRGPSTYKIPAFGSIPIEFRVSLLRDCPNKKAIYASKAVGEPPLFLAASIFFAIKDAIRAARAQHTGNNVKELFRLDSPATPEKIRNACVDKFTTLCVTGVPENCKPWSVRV
Protocol: Inhibition of XO (unknown origin) using xanthine as substrate measured after 2 to 3 mins by UV-spectrophotometric analysis
Quantity Measured: pIC50
FYI, pIC50 means -log10 of a concentration in mol per litre.

Look up pIC50: COc1ccc([C@@H]2C/C(=N\c3ccc([N+](=O)[O-])cc3Cl)C3C(O)=CC(O[C@H]4C[C@@H](OC5O[C@H](C)[C@@H](O)[C@H](O)C5O)[C@H](O)[C@@H](O)[C@@H]4O)=CC3O2)cc1O (stereo partly specified)
6.58

* * *

Target Desc: Xanthine dehydrogenase/oxidase (Bos taurus)
Sequence (P80457 whole entry): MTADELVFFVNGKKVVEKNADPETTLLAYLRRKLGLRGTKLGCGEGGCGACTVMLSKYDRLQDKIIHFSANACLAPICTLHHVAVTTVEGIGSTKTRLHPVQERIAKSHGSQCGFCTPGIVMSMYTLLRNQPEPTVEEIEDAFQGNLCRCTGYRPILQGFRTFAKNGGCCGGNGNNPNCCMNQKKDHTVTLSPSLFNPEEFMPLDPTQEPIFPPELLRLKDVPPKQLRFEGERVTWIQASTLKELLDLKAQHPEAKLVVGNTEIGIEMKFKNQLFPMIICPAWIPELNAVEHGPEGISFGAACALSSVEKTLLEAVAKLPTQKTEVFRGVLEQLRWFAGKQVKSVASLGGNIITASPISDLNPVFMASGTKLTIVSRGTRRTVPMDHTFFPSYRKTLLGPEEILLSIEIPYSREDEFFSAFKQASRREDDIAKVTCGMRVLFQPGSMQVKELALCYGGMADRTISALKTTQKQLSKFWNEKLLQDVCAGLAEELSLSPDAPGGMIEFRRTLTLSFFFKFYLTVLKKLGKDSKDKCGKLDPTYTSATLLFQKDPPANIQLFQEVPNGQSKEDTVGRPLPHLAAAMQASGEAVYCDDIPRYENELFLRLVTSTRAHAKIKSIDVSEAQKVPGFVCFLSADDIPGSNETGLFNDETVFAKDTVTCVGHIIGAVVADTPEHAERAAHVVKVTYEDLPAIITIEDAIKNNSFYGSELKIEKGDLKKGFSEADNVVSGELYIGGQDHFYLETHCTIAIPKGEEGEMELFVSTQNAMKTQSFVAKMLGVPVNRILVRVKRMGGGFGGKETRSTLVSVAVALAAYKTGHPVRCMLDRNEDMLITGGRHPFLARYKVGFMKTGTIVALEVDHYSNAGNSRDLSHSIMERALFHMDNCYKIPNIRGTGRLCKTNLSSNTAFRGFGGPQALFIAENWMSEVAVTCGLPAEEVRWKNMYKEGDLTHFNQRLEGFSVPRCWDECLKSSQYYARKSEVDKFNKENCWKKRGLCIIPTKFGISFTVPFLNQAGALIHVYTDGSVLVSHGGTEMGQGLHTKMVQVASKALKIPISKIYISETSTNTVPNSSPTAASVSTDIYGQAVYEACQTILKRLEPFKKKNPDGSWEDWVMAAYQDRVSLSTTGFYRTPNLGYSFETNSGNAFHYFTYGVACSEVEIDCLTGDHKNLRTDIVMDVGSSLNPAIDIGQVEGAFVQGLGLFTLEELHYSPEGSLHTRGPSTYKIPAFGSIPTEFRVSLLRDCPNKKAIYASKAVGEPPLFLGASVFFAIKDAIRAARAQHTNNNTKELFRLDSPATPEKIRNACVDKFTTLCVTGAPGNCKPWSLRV
Protocol: Inhibition of Bovine XO using xanthine as substrate assessed as decrease in uric acid level by spectrophotometric analysis
Quantity Measured: pIC50
FYI, pIC50 means -log10 of a concentration in mol per litre.

Look up pIC50: `O=C(O)c1ccc2c(c1)C(=O)N(c1ccccc1)C2=O`
5.15

Recorded values, source ChEMBL document CHEMBL5356950.
